Taken from ChEMBL document CHEMBL1157903.

biological target: Peroxisome proliferator-activated receptor gamma (Homo sapiens); experiment: Agonist activity against human Gal4-fussed PPARgamma in HEK293 cells by luciferase reporter gene assay
pEC50: −log10 of the molar value.
parameter: pEC50

structure_smiles_string=COc1ccc(OC(=O)N(CC(=O)O)[C@@H](C)c2cccc(OCc3coc(-c4ccc(Cl)cc4)n3)c2)cc1 target_or_system="Peroxisome proliferator-activated receptor gamma (Homo sapiens)" parameter=pEC50 readout_number=6.01
structure_smiles_string=COc1cc(OC(=O)N(CC(=O)O)[C@@H](C)c2cccc(OCc3coc(-c4ccc(Cl)cc4)n3)c2)ccc1F target_or_system="Peroxisome proliferator-activated receptor gamma (Homo sapiens)" parameter=pEC50 readout_number=5.84

====

Molecular target: Peroxisome proliferator-activated receptor gamma (Homo sapiens)
Sequence (whole entry): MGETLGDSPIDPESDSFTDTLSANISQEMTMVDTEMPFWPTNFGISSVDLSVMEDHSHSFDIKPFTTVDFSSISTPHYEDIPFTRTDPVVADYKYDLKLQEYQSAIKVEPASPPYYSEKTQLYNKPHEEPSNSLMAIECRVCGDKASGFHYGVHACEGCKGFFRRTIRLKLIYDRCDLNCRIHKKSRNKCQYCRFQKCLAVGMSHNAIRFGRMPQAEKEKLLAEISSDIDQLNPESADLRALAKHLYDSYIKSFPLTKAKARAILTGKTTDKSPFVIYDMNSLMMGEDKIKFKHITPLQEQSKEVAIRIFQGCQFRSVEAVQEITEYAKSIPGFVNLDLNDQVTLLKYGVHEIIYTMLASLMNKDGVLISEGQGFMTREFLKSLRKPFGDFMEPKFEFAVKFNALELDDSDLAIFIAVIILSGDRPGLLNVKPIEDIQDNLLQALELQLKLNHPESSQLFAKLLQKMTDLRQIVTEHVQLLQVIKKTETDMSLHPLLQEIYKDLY
Assay: Agonist activity against human Gal4-fussed PPARgamma by luciferase reporter gene assay relative to rosiglitazone
parameter: Emax (%)

Examples with their reported Emax follow.
structure_smiles_string=COC(=O)N(CC(=O)O)Cc1cccc(OCc2csc(-c3ccc(C)cc3)n2)c1 parameter=Emax readout_number=84
structure_smiles_string=COc1ccc(OC(=O)N(CC(=O)O)[C@@H](C)c2cccc(OCc3coc(-c4ccc(Cl)cc4)n3)c2)cc1 parameter=Emax readout_number=62
structure_smiles_string=COC(=O)N(CC(=O)O)Cc1cccc(OCc2coc(-c3ccc(F)c(Cl)c3)n2)c1 parameter=Emax readout_number=54
structure_smiles_string=COC(=O)N(CC(=O)O)Cc1cccc(OCc2csc(-c3ccc(C(F)(F)F)cc3)n2)c1 parameter=Emax readout_number=73
structure_smiles_string=C[C@@H](c1cccc(OCc2coc(-c3ccc(Cl)cc3)n2)c1)N(CC(=O)O)C(=O)Oc1ccccc1 parameter=Emax readout_number=43
structure_smiles_string=COC(=O)N(CC(=O)O)Cc1cccc(OCc2csc(-c3ccc(Cl)cc3)n2)c1 parameter=Emax readout_number=35
structure_smiles_string=COC(=O)N(CC(=O)O)Cc1cccc(OCc2coc(-c3ccc(C)cc3)n2)c1 parameter=Emax readout_number=94

1: COC(=O)N(CC(=O)O)[C@@H](C)c1cccc(OCc2coc(-c3ccc(C)cc3)n2)c1
2: COC(=O)N(CC(=O)O)Cc1cccc(OCc2csc(-c3cccc(Cl)c3)n2)c1
QUERY: Response body: label of entry with the larger Emax; valid values 1 , 2 . Give the chosen item's label as your response.
RESULT: 1

====

test: Drug level in hamster liver at 10 mg/kg, po; assay type: ADME, organism-based; set-up: dose 10 mg/kg, route oral; details: cricetinae, in vivo, read-out: Drug uptake
parameter: concentration (µM)

structure_smiles_string=COC(=O)N(CC(=O)O)Cc1cccc(OCc2csc(-c3ccc(C(F)(F)F)cc3)n2)c1 readout_number=86.8
structure_smiles_string=COC(=O)N(CC(=O)O)Cc1cccc(OCc2coc(-c3ccc(Cl)cc3)n2)c1 readout_number=83.8
